# Tested on: polyclonal antibodies (antiserum raised to Immunogen II), detecting agent Hapten 1-HRP
# TEST_DETAILS: Biochip competitive immunoassay (antibody characterisation, cross-reactivity)
# Format: binding, sheep
# MEASUREMENT_PARAMETERS: detecting agent derived from Hapten-1, competitive assay format
Where a name gives a salt, the structure may show the parent alone.
OBSERVABLE: IC50 (mg/L)
Return type: number; implicit unit mg/L.

**Q:** Would you mind telling me what IC50 value was observed for c1cc2c(cc1CN1CCNCC1)OCO2 ?
**A:** 0.0014

**Q:** One more compound: COc1ccccc1N1CCNCC1 [1-(2-Methoxyphenyl)piperazine diHCl, 1-(2-Methoxyphenyl)piperazine]
**A:** 0.0438

**Q:** One more compound: Cc1cccc(CN2CCNCC2)c1 [N-(3-Methylbenzyl)piperazine diHCl, N-(3-Methylbenzyl)piperazine]
**A:** 0.0026

**Q:** One more compound: Oc1cccc(N2CCNCC2)c1 [1-(3-Hydroxyphenyl)piperazine]
**A:** 0.14

**Q:** One more compound: Cc1cccc(N2CCNCC2)c1
**A:** 0.0359

**Q:** One more compound: Clc1cccc(N2CCNCC2)c1 [mCPP HCl, 1-(3-chlorophenyl)piperazine]
**A:** 0.2333

**Q:** One more compound: Cc1ccc(N2CCNCC2)cc1
**A:** 0.1077

**Q:** One more compound: Oc1cccc(CN2CCNCC2)c1 [3-(Piperazin-1ylmethyl)phenol diHCl, 3-(Piperazin-1ylmethyl)phenol]
**A:** 0.0011
